- ASSAYED TARGET: human PCSK9 (proprotein convertase subtilisin kexin type 9) (human, UniProt Q8NBP7 31-692)
- Sequence (Q8NBP7 31-692 limits assumed): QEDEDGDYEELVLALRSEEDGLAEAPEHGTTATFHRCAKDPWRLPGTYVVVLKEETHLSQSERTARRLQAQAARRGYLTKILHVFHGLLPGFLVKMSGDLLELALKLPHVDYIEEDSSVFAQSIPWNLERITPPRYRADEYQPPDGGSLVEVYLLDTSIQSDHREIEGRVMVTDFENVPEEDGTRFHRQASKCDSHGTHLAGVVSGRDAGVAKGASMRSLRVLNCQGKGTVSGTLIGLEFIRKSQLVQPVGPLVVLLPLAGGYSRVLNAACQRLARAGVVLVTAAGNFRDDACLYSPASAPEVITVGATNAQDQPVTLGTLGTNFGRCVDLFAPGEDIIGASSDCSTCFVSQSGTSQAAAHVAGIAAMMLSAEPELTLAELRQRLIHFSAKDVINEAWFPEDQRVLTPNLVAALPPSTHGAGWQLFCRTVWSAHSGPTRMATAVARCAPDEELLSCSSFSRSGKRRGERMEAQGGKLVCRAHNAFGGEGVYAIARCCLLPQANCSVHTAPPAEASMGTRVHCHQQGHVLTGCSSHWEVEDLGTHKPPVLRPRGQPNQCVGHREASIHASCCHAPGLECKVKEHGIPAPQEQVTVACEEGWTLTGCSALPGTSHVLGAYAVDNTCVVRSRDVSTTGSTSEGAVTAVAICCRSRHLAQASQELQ
- ASSAY SUMMARY: cell-based or functional assay
READOUT NAME: LDLR Depletion (% inhibition at 75 nM) (%)
Answers are plain numbers, in %.

* 2382F03 (designed binder) MGVSDVPRDLEVVAATPTSLLISWDAPAADAYGYYRITYGETGGNSPVQEFTVPVSKGTATISGLKPGVDYTITVYAVEFNFPGAGYYHRPISINYRTEIDKPSQHHHHHH | 88.6

Lab note: each binder below needs its LDLR Depletion (% inhibition at 75 nM) filled in.
1. 2382G03 (designed binder) MGVSDVPRDLEVVAATPTSLLISWDAPAEAEAYGYYRITYGETGGNSPVQEFTVPVSKGTATISGLKPGVDYTITVYAVEYVFPGAGYYHRPISINYRTEIDKPSQHHHHHH
2. 2382F05 (designed binder) MGVSDVPRDLEVVAATPTSLLISWDAPAEAGKHYGYYRITYGETGGNSPVQEFTVPVSKGTATISGLKPGVDYTITVYAVEFDFPGAGYYHRPISINYRTEIDKPSQHHHHHH
3. 2382G04 (designed binder) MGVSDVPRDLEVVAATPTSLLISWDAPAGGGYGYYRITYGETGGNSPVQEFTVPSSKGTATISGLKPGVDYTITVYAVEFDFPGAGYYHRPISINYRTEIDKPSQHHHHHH

[77.8, 72.2, 146]
